Molecular target: membrane TPP II (tripeptidyl peptidase II) (Rattus norvegicus, UniProt Q64560)
Construct: evaluated by measuring the activity of membrane TPP II; from tissue; host or cells: rat cerebral cortex membranes
Sequence (Q64560 whole entry): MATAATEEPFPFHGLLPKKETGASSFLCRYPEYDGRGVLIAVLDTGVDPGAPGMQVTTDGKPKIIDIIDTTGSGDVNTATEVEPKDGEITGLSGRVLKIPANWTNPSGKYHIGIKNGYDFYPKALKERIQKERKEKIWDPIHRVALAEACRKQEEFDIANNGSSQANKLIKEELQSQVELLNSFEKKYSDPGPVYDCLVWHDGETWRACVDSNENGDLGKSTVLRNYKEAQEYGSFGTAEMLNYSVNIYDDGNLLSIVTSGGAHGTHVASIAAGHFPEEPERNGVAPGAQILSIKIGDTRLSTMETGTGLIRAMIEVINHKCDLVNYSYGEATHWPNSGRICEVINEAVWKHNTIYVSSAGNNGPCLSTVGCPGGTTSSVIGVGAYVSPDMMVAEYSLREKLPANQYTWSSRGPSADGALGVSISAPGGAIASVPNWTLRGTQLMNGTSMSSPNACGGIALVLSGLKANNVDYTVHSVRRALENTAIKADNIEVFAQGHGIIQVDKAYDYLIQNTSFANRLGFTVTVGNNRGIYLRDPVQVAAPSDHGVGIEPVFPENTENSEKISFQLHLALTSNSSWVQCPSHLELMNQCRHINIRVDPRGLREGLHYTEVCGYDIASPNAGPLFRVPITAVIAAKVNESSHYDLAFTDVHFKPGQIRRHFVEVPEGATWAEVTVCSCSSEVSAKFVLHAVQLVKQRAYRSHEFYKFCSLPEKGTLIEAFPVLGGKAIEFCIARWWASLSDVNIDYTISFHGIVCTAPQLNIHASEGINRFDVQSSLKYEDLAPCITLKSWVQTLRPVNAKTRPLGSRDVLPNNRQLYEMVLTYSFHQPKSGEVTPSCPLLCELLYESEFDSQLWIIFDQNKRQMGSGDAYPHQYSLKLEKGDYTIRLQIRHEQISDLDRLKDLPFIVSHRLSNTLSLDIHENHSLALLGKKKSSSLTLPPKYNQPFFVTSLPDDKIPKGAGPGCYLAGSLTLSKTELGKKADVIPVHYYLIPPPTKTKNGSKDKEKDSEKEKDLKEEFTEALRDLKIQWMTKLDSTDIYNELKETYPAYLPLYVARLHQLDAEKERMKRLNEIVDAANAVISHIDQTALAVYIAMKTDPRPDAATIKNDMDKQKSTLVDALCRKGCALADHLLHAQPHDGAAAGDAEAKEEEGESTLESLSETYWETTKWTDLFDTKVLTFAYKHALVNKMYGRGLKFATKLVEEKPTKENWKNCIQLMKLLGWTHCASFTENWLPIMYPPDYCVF
Assay: Inhibition of AAF-Amc hydrolysis by cerebral membranes (inhibition of TPP II)
Format: biochemical
Conditions: Table 1; rat cerebral cortex membranes, substrate Ala-Ala-Phe-Amc, Ki calculated from 50% inhibition concentration and Km 23 μM; read-out: Ki (nM), Inhibition of AAF-Amc Hydrolysis by Cerebral Membranes
Structures can show the parent of a compound that is named as a salt.
hey, just use Condition met if measured Ki is less than 0.7 nM, otherwise Condition not met

Record excerpt, results attached:
molecule="CC[C@H](N)C(=O)N1c2ccc(O)cc2CC1C(=O)NCC(F)(F)F (mixture of isomers)" label_class="Condition not met"
molecule="CC[C@H](N)C(=O)N1c2cccc(Cl)c2CC1C(=O)NCC(F)(F)F.O=C(O)C(F)(F)F (mixture of isomers) [Example 7, trifluoroacetate]" label_class="Condition met"
molecule="CC[C@H](N)C(=O)N1c2cccc(F)c2CC1C(=O)NCC(F)(F)F.O=C(O)C(F)(F)F (mixture of isomers) [Example 8, trifluoroacetate]" label_class="Condition met"

Q: Please indicate whether the reported Ki of CC[C@H](N)C(=O)N1c2ccc(OC(F)(F)F)cc2CC1C(=O)NCC(F)(F)F (mixture of isomers) [Example 10, trifluoroacetate] is strictly below 0.7 nM.
Ans: Condition not met

Q: Please indicate whether the reported Ki of CC[C@H](N)C(=O)N1c2ccc(Cl)cc2C[C@H]1C(=O)NCC(F)(F)F.O=C(O)C(F)(F)F [Example 1, trifluoroacetate] is strictly below 0.7 nM.
Ans: Condition met

Q: Please indicate whether the reported Ki of CC[C@H](N)C(=O)N1c2ccc(Cl)cc2C[C@H]1C(=O)NCCCl.O=C(O)C(F)(F)F [Example 2, trifluoroacetate] is strictly below 0.7 nM.
Ans: Condition not met
